Data origin: PubChem BioAssay (NCI)

Tested on: A498 renal
assay-remarks: NCI tumour cell line growth inhibition, 48 h; in the data active means GI50 below about 0.43 µM; inactive means the rest
A correct response names exactly one class from yes (1) = active, no (0) = inactive

molecule=O=C(/C=C/c1cccc(Cl)c1)c1ccc(Cl)cc1Cl qualitative_label="no (0)"
molecule=O=C(NNS(=O)(=O)c1cc(C(F)(F)F)cc(C(F)(F)F)c1)c1cnn(-c2ccc(Cl)cc2)c1C(F)(F)F qualitative_label="no (0)"
molecule=COC(=O)CCC1=C(C)c2cc3[n-]c(cc4nc(cc5[n-]c(cc1n2)c(CCC(=O)OC)c5C)C=C4C)cc3C.[Cd+2] qualitative_label="no (0)"
molecule="C=C(C)[C@H]1CC/C(C)=C/CCC(C)C(=O)CC/C(CO)=C\\[C@@H]1O (some centres not stated)" qualitative_label="no (0)"
molecule=FC(F)(F)c1ccc(-c2cnc(Br)nc2NC2CCCCCC2)cc1 qualitative_label="no (0)"
molecule=C[C@@H]1CC[C@@]2(OC1)O[C@H]1C[C@H]3[C@@H]4CC=C5C[C@@H](O[C@@H]6O[C@H](CO)[C@@H](O[C@@H]7O[C@@H](CO)[C@H](O)[C@H]7O)[C@H](O)[C@H]6O[C@@H]6O[C@@H](C)[C@H](O)[C@@H](O)[C@H]6O)CC[C@]5(C)[C@H]4CC[C@]3(C)[C@H]1[C@@H]2C qualitative_label="no (0)"

--- query ---
Asked: Record lookup: outcome of this test for O=C(/C=C/c1ccco1)Nc1ncc(Cc2ccc(F)cc2)s1 ?
Given back: yes (1)

====

Assignment: determine reported TGI for the given molecules.
System: NCI-H460 lung
assay-remarks: NCI tumour cell line growth inhibition, 48 h

molecule=c1ccc(-c2cc(-c3cc(-c4ccccc4)n(-c4ccccc4)n3)nn2-c2ccccc2)cc1 data_value="> 100 µM"
molecule=CCc1cccc(C)c1NC(=O)NS(=O)(=O)c1ccc(C)cc1 data_value="> 100 µM"
molecule=COc1cc(Br)c(CC2=NCCc3cc(OC)c(OC)cc32)cc1OC data_value="> 100 µM"

Hi there! I need TGI for each item below, if you can.
1. COC(=O)CCCCC/C(=C\C(=O)C(Cl)(Cl)Cl)OC
2. CC/C(Cl)=N\OC(=O)Nc1ccc(C#N)cc1
3. CCOC(=O)CCC(NC(=O)OCc1ccccc1)C(=O)NC(CCC(=O)OCC)C(=O)NC(CCC(=O)OCC)C(=O)NC(CCC(=O)OCC)C(=O)NC(CCC(=O)OCC)C(=O)OCC (configuration not stated)
4. Cc1nc(NC(=O)N2CCC[C@H]2C(N)=O)sc1-c1ccnc(C(C)(C)C(F)(F)F)c1
5. O=C1OC(CN2CCN(c3ccccc3)CC2)CN1C(=S)Nc1ccccc1 (configuration not stated)
6. CC1(C)CCc2c(c(N=Nc3ccccc3)c3ccccc3c2O)O1
7. CN(O)C(=O)Cc1ccccc1
8. Clc1nc2c(-c3cccs3)ncnc2n1Cc1ccccc1

Given back:
76.9 µM
36.2 µM
> 100 µM
> 100 µM
> 100 µM
53.3 µM
> 100 µM
> 83.2 µM

Hi there! I need TGI for each item below, if you can.
1. N#Cc1c(C#N)c(SSc2c(C#N)c(C#N)c(N)n2-c2ccccc2)n(-c2ccccc2)c1N
2. O=Cc1coc2ccccc2c1=O
3. CC(C)[Si](OC1=CCCCCC12C(=O)N(C)c1ccccc12)(C(C)C)C(C)C (configuration not stated)
4. Cc1nc(-c2nc([N+](=O)[O-])c([N+](=O)[O-])[nH]2)cs1
5. CC(C)C(N)(C(=O)O)c1ccccc1 (configuration not stated)
6. Cn1c(=O)c2[nH]c(COc3ccc(C(C)(C)C)cc3)nc2n(C)c1=O
7. CC(Cc1ccc(O)c(O)c1)C(C)Cc1ccc(O)c(O)c1 (configuration not stated)

Given back:
["> 89.3 µM", "50.9 µM", "38.4 µM", "> 100 µM", "> 100 µM", "> 100 µM", "35 µM"]

Hi there! I need TGI for each item below, if you can.
1. CC#CC(=O)N1CCC[C@H]1c1nc(-c2ccc(C(=O)Nc3ccccn3)cc2)c2c(N)nccn12
2. Cc1ccc(NC(=O)C(=O)Cc2nc3ccccc3o2)c(C)c1
3. CCCCCCCCCC(=O)CC(=O)c1c(O)cccc1O
4. COc1ccc(NC(=O)C(=O)C2NC(=S)NC2=O)c(OC)c1 (configuration not stated)

Given back:
1. > 100 µM
2. > 100 µM
3. > 100 µM
4. > 100 µM

====

Tested on: SK-MEL-2 melanoma
assay-remarks: NCI tumour cell line growth inhibition, 48 h
Assignment: determine reported TGI for the given compounds.

# example entries with known answers
compound=CC/C=C\CCC/C=C1/C(=O)C=C[C@@H]1C/C=C\CCCC(=O)O data_value="18.3 µM"
compound=COc1ccc2c(c1)OC13Oc4cc(OC)ccc4C=C1CCCC3=C2 data_value="> 100 µM"

Hi there! I need TGI for each item below, if you can.
1. Cc1cc(=Nc2ccc3c(c2)c(N)cc(C)[n+]3C)nc(N)n1C
2. C[C@@H]1CC[C@@]2(OC1)O[C@H]1C[C@H]3[C@@H]4CC=C5C[C@@H](O[C@@H]6O[C@H](CO)[C@@H](O[C@@H]7O[C@@H](CO)[C@H](O)[C@H]7O)[C@H](O)[C@H]6O[C@@H]6O[C@@H](C)[C@H](O)[C@@H](O)[C@H]6O)CC[C@]5(C)[C@H]4CC[C@]3(C)[C@H]1[C@@H]2C
3. CC1(C)CCc2c(c(N=Nc3ccccc3)c3ccccc3c2O)O1
4. Cc1n[nH]c(=O)n1N=C(c1ccccc1)c1ccccc1

Given back:
1: > 100 µM; 2: 3.04 µM; 3: 34.5 µM; 4: > 100 µM

Hi there! I need TGI for each item below, if you can.
1. CCOC(=O)c1nc2cc(C(F)(F)F)ccc2nc1Nc1ccc(Cl)c(Cl)c1
2. O=Nc1c(O)ccc2ccccc12
3. C[C@H]1[C@@H](OCC(CO[C@H]2O[C@@H]3O[C@@]4(C)CC[C@H]5[C@H](C)CC[C@@H]([C@H]2C)[C@@]35OO4)=NOCC(=O)O)OC2O[C@@]3(C)CC[C@H]4[C@H](C)CC[C@@H]1[C@@]24OO3 (stereo not given in full)

Given back:
> 100 µM
4.36 µM
14.8 µM

Asked: Note down TGI recorded for NC(CCCCNc1ccn(C2OC(CO)C(O)C2O)c(=O)n1)C(=O)O (stereo not given)
Given back: > 100 µM

====

Tested on: MCF7 breast
assay-remarks: NCI tumour cell line growth inhibition, 48 h; in the data active means GI50 below about 0.43 µM; inactive means the rest
A correct response names exactly one class from active, inactive

Worked set:
compound=COc1ccc([C@H]2O[C@@H](CO)C[C@]2(O)c2ccc(OC)cc2)cc1 qualitative_label=inactive
compound=C#Cc1ccc(NC(=O)c2ccc(/C=C/C(=O)c3nccn3C)cc2)cc1 qualitative_label=active
compound=Cn1c(=O)c2[nH]c(COc3ccc(C(C)(C)C)cc3)nc2n(C)c1=O qualitative_label=inactive
compound="NC(CSC(c1ccccc1)(c1ccccc1)c1ccc2ccccc2c1)C(=O)O (stereo unspecified)" qualitative_label=active
compound=COc1ccc(/C=C2\COc3ccc(-c4ccccc4)cc3C2=O)cc1O qualitative_label=inactive

--- query ---
Asked: Record lookup: outcome of this test for CC(=O)/C(C)=N/N/C(N)=N\S(=O)(=O)c1cc(C(=O)Nc2ccccc2)c(Cl)cc1SCc1ccccc1 ?
Given back: inactive

====

System: UACC-257 melanoma
assay-remarks: NCI tumour cell line growth inhibition, 48 h
measured-attribute: TGI

# example entries with known answers
compound="CC1=C2C(c3ccccc3)(c3ccccc3)C3C=CC2(C=N3)N(C(=O)NC2CCCCC2)C1=O (stereo not given)" data_value="30.9 µM"
compound="COC(=O)C1=C(C(=O)OC)C2(C(=O)OC)OC1(OC)C(C1(C(=O)OC)C(C(=O)OC)=C1C(=O)OC)=C2C(=O)OC (stereo not given)" data_value="> 100 µM"
compound=O=C1c2ccccc2C(=O)N1c1ccc(OCCN2CCCCC2)cc1 data_value="> 100 µM"
compound=CN(/N=C\c1ccc2ccccc2c1)C1=NCCCCN1 data_value="33.7 µM"

Okay, next one:
Asked: State TGI on UACC-257 melanoma. Entry: O=C(O)c1ccccc1/C=N\NC1=NCCN1
Given back: > 100 µM

====

Test system: SW-620 colon
assay-remarks: NCI tumour cell line growth inhibition, 48 h
measured-attribute: GI50

# example entries with known answers
molecule=Cn1c(=O)c2[nH]c(COc3ccc(C(C)(C)C)cc3)nc2n(C)c1=O system_tested="SW-620 colon" measured_attribute=GI50 data_value="27000 nM"
molecule="C[Se]C(=O)CC1=C2C=C(F)C=CC2/C(=C\\c2ccc(S(C)=O)cc2)C1C (stereo not drawn)" system_tested="SW-620 colon" measured_attribute=GI50 data_value="273 nM"

Okay, next one:
Asked: Note down GI50 recorded for NC(CSC(c1ccccc1)(c1ccccc1)c1ccc2ccccc2c1)C(=O)O (stereo not drawn)
Given back: 38.1 nM
